All values here come from paper PMC11234460.

- Measured on: T1, SmallBit-Nur77 (luciferase SmallBit fusion of Nur77) (UniProt P22736 1-598)
- T1 construct: Nur77; source: HEK293T, transiently transfected, in living cells
- Protocol details: split reporter (BiFC, NanoBiT)
- Assay setup: one partner purified
Bridges are numbered along the chain shown (N, C = ends). [ ]: non-standard residue; d: D form. S5 = C=CCCC[C@](C)(N)C(=O)O
Measurement label: EC50 (µM)
Give bare numbers, in µM.

Record H-CEGCKGF[S5]RRT[S5]RYYGRKKRRQRRR-NH2 (staple 8-12; cysteine pairing not given here) [ST-CY14 (stapled T-CY14)] . Reported EC50: 3.15
